System: 324938-238-R-J1-PDC complex spheroid viability
measurement_notes: Anticancer human tumor 324938-238-R-J1-PDC patient-derived bladder carcinoma cell line growth inhibition; active = viability on the fitted dose curve at most 10% of control; inactive = the rest
experimental_parameters: second compound 3.16 µM; first compound 0.00316 µM
I would appreciate it if you answered using one of these outcomes: 1 (active), -1 (inactive)

- Cn1ncnc1C1c2n[nH]c(=O)c3cc(F)cc(c23)NC1c1ccc(F)cc1 (centres undefined) + NC1CC1c1ccc(-c2cccc(O)c2)cc1: -1
- CC(C)CC(NC(=O)C(Cc1ccccc1)NC(=O)c1cnccn1)B(O)O (centres undefined) + NC1CCC(NC2CC2c2ccccc2)CC1: 1
- CC(C)CC(NC(=O)CNC(=O)c1cc(Cl)ccc1Cl)B1OC(=O)CC(CC(=O)O)(C(=O)O)O1 (centres undefined) + NC1CC1c1ccc(-c2cccc(O)c2)cc1: -1
- CC(C)CC(NC(=O)CNC(=O)c1cc(Cl)ccc1Cl)B1OC(=O)CC(CC(=O)O)(C(=O)O)O1 (centres undefined) + NC1CCC(NC2CC2c2ccccc2)CC1: -1
- O=C(C=Cn1cnc(-c2cc(C(F)(F)F)cc(C(F)(F)F)c2)n1)NNc1cnccn1 + NC1CCC(NC2CC2c2ccccc2)CC1: -1

Problem: Could you kindly confirm the outcome this assay logged for O=C(C=Cn1cnc(-c2cc(C(F)(F)F)cc(C(F)(F)F)c2)n1)NNc1cnccn1 + NC1CC1c1ccc(-c2cccc(O)c2)cc1 ?
Result: -1

Problem: Could you kindly confirm the outcome this assay logged for COc1cc(Nc2ncc3c(n2)-c2ccc(Cl)cc2C(c2c(F)cccc2OC)=NC3)ccc1C(=O)O + NC1CC1c1ccc(-c2cccc(O)c2)cc1 ?
Result: -1

Problem: Could you kindly confirm the outcome this assay logged for Nc1ncn(C2CC(O)C(CO)O2)c(=O)n1 (centres undefined) + NC1CC1c1ccc(-c2cccc(O)c2)cc1 ?
Result: -1

Problem: Could you kindly confirm the outcome this assay logged for CC1COCCN1c1cc(-c2ccnn2C)c2ccnc(-c3ccn[nH]3)c2n1 (centres undefined) + NC1CC1c1ccc(-c2cccc(O)c2)cc1 ?
Result: -1

---

Tested on: 324938-238-R-J1-PDC complex spheroid viability
measurement_notes: Anticancer human tumor 324938-238-R-J1-PDC cell line growth inhibition;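 also: spheroids also contain HUVEC and human MSCs and agents combined with iadademstat; spheroids exposed to agents for 7 days before readout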
experimental_parameters: second compound 10 µM; first compound 10 µM; stronger effect = lower value
Source text: Multicellular complex tumor spheroid response to LSD1 Inhibitor Iadademstat in combination with a variety of drugs and investigational agents in selected tumor cell lines The current study was undertaken to assess response to LSD1 inhibitors in combination with standard-of-care drugs and investigational agents in solid tumor complex spheroid models as well as in the K-562 leukemia. […] Compounds. […] If the clinical Cmax for an agent had not been determined, the highest concentration tested was 10 microM. […]
attribute_measured: viability, T/C (%)
Give bare numbers, in %.

Past entries and their recorded results:
- O=C(c1cc(Cc2n[nH]c(=O)c3ccccc23)ccc1F)N1CCN(C(=O)C2CC2)CC1 + NC1CC1c1ccc(-c2cccc(O)c2)cc1: 38.2
- CC1COCCN1c1cc(C2(S(C)(=N)=O)CC2)nc(-c2ccnc3[nH]ccc23)n1 (stereo not given) + NC1CC1c1ccc(-c2cccc(O)c2)cc1: 12.2
- CC(C)c1c(-c2ccccc2)nc2c(C#N)c[nH]n2c1=O + NC1CC1c1ccc(-c2cccc(O)c2)cc1: 80.8
- COc1ccc([C@@H](O)c2cc(-c3ncnc4cc(N5CCOCC5)ccc34)c(F)cc2Cl)nn1 + NC1CC1c1ccc(-c2cccc(O)c2)cc1: 21.8
- CC(C)c1c(-c2ccccc2)nc2c(C#N)c[nH]n2c1=O + NC1CCC(NC2CC2c2ccccc2)CC1: 77.9

Required: viability, T/C, one value per molecule below.
1. CC1COCCN1c1cc(C2(S(C)(=N)=O)CC2)nc(-c2ccnc3[nH]ccc23)n1 (stereo not given) + NC1CCC(NC2CC2c2ccccc2)CC1
2. O=C(c1cc(Cc2n[nH]c(=O)c3ccccc23)ccc1F)N1CCN(C(=O)C2CC2)CC1 + NC1CCC(NC2CC2c2ccccc2)CC1
3. CC1(C)CCC(CN2CCN(c3ccc(C(=O)NS(=O)(=O)c4ccc(NCC5CCOCC5)c([N+](=O)[O-])c4)c(Oc4cnc5[nH]ccc5c4)c3)CC2)=C(c2ccc(Cl)cc2)C1 + NC1CC1c1ccc(-c2cccc(O)c2)cc1
4. COc1ccc([C@@H](O)c2cc(-c3ncnc4cc(N5CCOCC5)ccc34)c(F)cc2Cl)nn1 + NC1CCC(NC2CC2c2ccccc2)CC1
5. CC1(C)CCC(CN2CCN(c3ccc(C(=O)NS(=O)(=O)c4ccc(NCC5CCOCC5)c([N+](=O)[O-])c4)c(Oc4cnc5[nH]ccc5c4)c3)CC2)=C(c2ccc(Cl)cc2)C1 + NC1CCC(NC2CC2c2ccccc2)CC1

Result:
[16.8, 45.1, 17.8, 26, 26]

---

Provide the recorded viability, T/C for the entries that follow.
Test system: 324938-238-R-J1-PDC complex spheroid viability
measurement_notes: Anticancer human tumor 324938-238-R-J1-PDC cell line growth inhibition;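 also: spheroids also contain HUVEC and human MSCs and agents combined with iadademstat; spheroids exposed to agents for 7 days before readout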
experimental_parameters: second compound 1 µM; first compound 0.00949 µM; stronger effect = lower value
Excerpt: Multicellular complex tumor spheroid response to LSD1 Inhibitor Iadademstat in combination with a variety of drugs and investigational agents in selected tumor cell lines The current study was undertaken to assess response to LSD1 inhibitors in combination with standard-of-care drugs and investigational agents in solid tumor complex spheroid models as well as in the K-562 leukemia. […] Compounds. […] If the clinical Cmax for an agent had not been determined, the highest concentration tested was 10 microM. […]
One number for each entry, in %.

Past entries and their recorded results:
- Nc1ncn(C2CC(O)C(CO)S2)c(=O)n1 (centres undefined) + NC1CCC(NC2CC2c2ccccc2)CC1: 58.3
- COc1cc(C2c3cc4c(cc3C(OC3OC5COC(C)OC5C(O)C3O)C3COC(=O)C23)OCO4)cc(OC)c1O (centres undefined) + NC1CC1c1ccc(-c2cccc(O)c2)cc1: 67.9
- Nc1ccccc1NC(=O)c1ccc(CNC(=O)OCc2cccnc2)cc1 + NC1CCC(NC2CC2c2ccccc2)CC1: 79

Now look at this entry.
Problem: Please list viability, T/C recorded for the molecule Nc1ccccc1NC(=O)c1ccc(CNC(=O)OCc2cccnc2)cc1 + NC1CC1c1ccc(-c2cccc(O)c2)cc1
Result: 67.2

---

Test system: 324938-238-R-J1-PDC complex spheroid viability
measurement_notes: Anticancer human tumor 324938-238-R-J1-PDC cell line growth inhibition;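 also: spheroids also contain HUVEC and human MSCs and agents combined with iadademstat; spheroids exposed to agents for 7 days before readout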
experimental_parameters: second compound 1 µM; first compound 0.01 µM; stronger effect = lower value
Lab note: anything with viability, T/C below 40% is marked rule met; values at 40% or higher are marked rule not met.

Below are worked cases with known answers.
* CC(C)CC(NC(=O)CNC(=O)c1cc(Cl)ccc1Cl)B1OC(=O)CC(CC(=O)O)(C(=O)O)O1 (configuration not stated) + NC1CCC(NC2CC2c2ccccc2)CC1 | rule met
* CC(C)CC(NC(=O)C(Cc1ccccc1)NC(=O)c1cnccn1)B(O)O (configuration not stated) + NC1CC1c1ccc(-c2cccc(O)c2)cc1 | rule met
* Nc1ncn(C2CC(O)C(CO)O2)c(=O)n1 (configuration not stated) + NC1CC1c1ccc(-c2cccc(O)c2)cc1 | rule not met
* CC[C@@]1(O)C(=O)OCc2c1cc1n(c2=O)Cc2cc3c(CN(C)C)c(O)ccc3nc2-1 + NC1CC1c1ccc(-c2cccc(O)c2)cc1 | rule met
* CC1COCCN1c1cc(-c2ccnn2C)c2ccnc(-c3ccn[nH]3)c2n1 (configuration not stated) + NC1CC1c1ccc(-c2cccc(O)c2)cc1 | rule not met

Turning now to a further record.
Problem: Lab note: viability, T/C threshold 40%. Does this molecule come in strictly under it? COc1cc(Nc2ncc3c(n2)-c2ccc(Cl)cc2C(c2c(F)cccc2OC)=NC3)ccc1C(=O)O + NC1CCC(NC2CC2c2ccccc2)CC1
Result: rule not met

---

Test system: 324938-238-R-J1-PDC complex spheroid viability
measurement_notes: Anticancer human tumor 324938-238-R-J1-PDC cell line growth inhibition;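 also: spheroids also contain HUVEC and human MSCs and agents combined with iadademstat; spheroids exposed to agents for 7 days before readout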
experimental_parameters: curve of first compound; second compound 10 µM
attribute_measured: pIC50
Give bare numbers, as −log10 of the molar value.

Past entries and their recorded results:
• CC1COCCN1c1cc(C2(S(C)(=N)=O)CC2)nc(-c2ccnc3[nH]ccc23)n1 (configuration not stated) + NC1CC1c1ccc(-c2cccc(O)c2)cc1 = 6.53
• CC1COCCN1c1cc(-c2ccnn2C)c2ccnc(-c3ccn[nH]3)c2n1 (configuration not stated) + NC1CC1c1ccc(-c2cccc(O)c2)cc1 = 7.89
• Nc1ncn(C2CC(O)C(CO)S2)c(=O)n1 (configuration not stated) + NC1CCC(NC2CC2c2ccccc2)CC1 = 7.79

Required: pIC50, one value per compound below.
1. Nc1ccccc1NC(=O)c1ccc(CNC(=O)OCc2cccnc2)cc1 + NC1CCC(NC2CC2c2ccccc2)CC1
2. CC(C)CC(NC(=O)C(Cc1ccccc1)NC(=O)c1cnccn1)B(O)O (configuration not stated) + NC1CC1c1ccc(-c2cccc(O)c2)cc1
3. COc1ccc([C@@H](O)c2cc(-c3ncnc4cc(N5CCOCC5)ccc34)c(F)cc2Cl)nn1 + NC1CCC(NC2CC2c2ccccc2)CC1
4. Nc1ncn(C2CC(O)C(CO)O2)c(=O)n1 (configuration not stated) + NC1CCC(NC2CC2c2ccccc2)CC1
5. Nc1ccccc1NC(=O)c1ccc(CNC(=O)OCc2cccnc2)cc1 + NC1CC1c1ccc(-c2cccc(O)c2)cc1
6. CC1COCCN1c1cc(C2(S(C)(=N)=O)CC2)nc(-c2ccnc3[nH]ccc23)n1 (configuration not stated) + NC1CCC(NC2CC2c2ccccc2)CC1
7. Nc1ncn(C2CC(O)C(CO)O2)c(=O)n1 (configuration not stated) + NC1CC1c1ccc(-c2cccc(O)c2)cc1

Result:
6.43
9.47
5.96
6.63
6.40
6.11
6.59

Required: pIC50, one value per compound below.
1. O=C(c1cc(Cc2n[nH]c(=O)c3ccccc23)ccc1F)N1CCN(C(=O)C2CC2)CC1 + NC1CCC(NC2CC2c2ccccc2)CC1
2. NS(=O)(=O)OCC1CC(n2ccc3c(NC4CCc5ccccc54)ncnc32)CC1O (configuration not stated) + NC1CC1c1ccc(-c2cccc(O)c2)cc1

Result:
1. 5.61
2. 6.48
